experiment: soluble fraction after stress (log2 fold change); higher = more stays soluble; pooled small domains, quantitative proteomics; details: stress: pH 4
Reported soluble fraction (log2) values follow for various sequences
Reply briefly: the number, and no unit.

# query: soluble fraction (log2) of entry "HMSASLPAAVEDPDLPYRVGAKLRHARWGEGLLVGIQREGSDVIATVHFASVGRKRLSLQYAHLEE" -0.785

I have this sequence here, "HMERFVVISKDKYANLREEASTNSKVLAKVDNSYLIYNTNTYNENKDWYSVQIERDGNYYQVGYIHKSQL" , and I need its recorded soluble fraction (log2). -1.82

Given "HMQISDESSIAKIADEVISEFPSQVSEFRSGKEKVLQFLIGQVMKKTKGKANPQITAKILREKLS" , state its recorded soluble fraction (log2). 0.17

* * *

test: soluble fraction after stress (log2 fold change); higher = more stays soluble; pooled small domains, quantitative proteomics; details: stress: pH 4
Outcome measure: soluble fraction (log2)
Write the number on its own, no unit after it.

Input sequence | Assay result
HMIFEEDILKEFRGSLIFITHDRRFLDNIATRIIELDRGKLLSFPGNFSAYKKAKNEQLANEAVENA | -1.17

Quick one: soluble fraction (log2) for "HMEATVGSRVRLARIGLTLTQKQLAQAVGVSANHLAMVERGSKHASEDLLQRIATATHTTYEWLMGTSEHQ" ? 0.174

For the sequence shown here, "HMAEVDREEALRIALAHAAVARRDVRNLKIERGEENGVPVYKVEFETAFGDFDVAVSRRSGDVVDAD" , give the reported soluble fraction (log2). -0.0548

So what does the record say about soluble fraction (log2) for "HMVGKGASIILDRVNLPQYLEKFNEDGFDTIESLKNLNEIDLKEMGVKKGHIRVILNYLHEEY" ? -0.48

Form field: reported soluble fraction (log2) of "HMKSIEVPNLINMTLRKAKIELIDNEFNLDTVIYEYNPNIREGRVSLQIPESGTILKSGSNISIHISKGIP" -0.32

What value of measured soluble fraction (log2) is listed for "HMNMDLGHSISKLRTDANLTQEKFAQILNVSRQTVQKWEYGEALPDIHNIIKIAKFFNISLDALVLRS" ? -0.222

Can you share its soluble fraction (log2)? I mean this sequence: "HMTTGTVKWFNDAKGFGFITPDDRSVDVFVHYSNIVGQSGRRTLMEGERVEYEAIEGPKGPQATDVARA" -1.06

Can you share its soluble fraction (log2)? I mean this sequence: "HMDKLFNRQTLGGVELTQKQIEDLNAGKAIFVEGMQRKDGEVFSSYVKLDEATGRPSYTRYNPDSP" 0.0109

State the recorded soluble fraction (log2) for this entry: "HMENPVPVIITDQNFQPLLWKNVGVPTDTIFHELSPENQKKLENLMKTMVQMPLTDDGRISGYAYYSK" 0.149

* * *

assay: soluble fraction after stress (log2 fold change); higher = more stays soluble; pooled small domains, quantitative proteomics; conditions: stress: pH 4
Outcome measure: soluble fraction (log2)
Lab note: record just the number, no unit beside it.

# annotated cases, reported soluble fraction (log2) shown
Input sequence | soluble fraction (log2)
HMTPTVEAAKEEVLRVLASAAPRGLTRTELEAEVSFRRTKLRDTLVELERIGRIDSVGRRGNATTYRLIG | -0.0736
HMRVSNADALIGRRGKANSDIRRGDYGWVAIDGDVWKSKLADDITEDIPMGAIVEVLSRDSIILTVKP | -1.08
HMGVHSVVPDIKNKHYGEAKAILAANGLSIEISDSIYDRSVAPGTVVESWPKAGAIVKGDRAVFVTLTAF | -1.17
HMTEKIRLTVDEAGKNQRVDKYISTLLTQFSRSSIKTWIETGNILLDNTRTKPRTLLSPGQVIDIQPRFED | -0.144
HMPMNISDIIKQAREELGMTQEDLAERLEVSRQAVSKWELGASVPSPENLRLLEELLGVELPAP | -0.635
HMYGSLGEYELAAVQWIYGKGKITTRELSSLIGKGLTLSSKTLRGLAAKGILEWHGNSKNDPSQFYSLP | -0.196

// lookup soluble fraction (log2) for "HMDAEWRTLTLAPEQHQQRLDRALADSLPEFSRSYVQQLIDTGMVRVNGVLAAKSAQRVKALDQVQVELR" -0.186

# get_value(readout='soluble fraction (log2)', item= "HMRISKRQLILESAAAIINEKGADYLTLDAVAQRAGISKGGLFYHFKSKDELIKELVNYANN" ) -1.57

Record request: soluble fraction (log2) value, item "HMQAPVVNHDLIKSFERQWREIKATAKGKVRSVNLSDARSILQSFLNTLQKGPGTDSLISSVQNELSLIA" 0.00595

For the sequence shown here, "HMEGIAYDINTAPEHIDLKAEDMMATFNIGKTALWRWVKQKILPPPYEYRSQAAHWTIGQIRDWKTA" , give the reported soluble fraction (log2). -0.417

Return reported soluble fraction (log2); argument: "HMTPPLSKIRNMTPDQQRSSVIEARKKGYNLLQLEGLAKAQGATPADLLVLRNAWAQSEFDQKR" 0.331

Given "HMNEQVAVVSGSQVNVRSGPGTTSAVVGQVSKGDNLPVLNQSGDWYQIKLPGGNAGWVAGWLVSLRPTT" , state its recorded soluble fraction (log2). 0.237

Recorded soluble fraction (log2) of "HMGKTRSTDRTRRAILDAASDLMGKHGTSVSLARIAEAAGMSKGGLLHHFPSRNDLIRALGED" , please. 0.396

Field request: soluble fraction (log2) | item: "HMGLNVSYRMDGENVVETIIFSGATMIRTVTPTGTMTIKTIENGSTSTAKVNADYSVYKKIYEAQY" -1.03

What value of soluble fraction (log2) has been reported for the following sequence? "HMGESEKTLELVSQKDALVDEAFFFVRFQALLESNKTKGAQDLLDQSNHLSAAKLLQANAYLDIV" 0.038

Please look up its soluble fraction (log2): "HMQLTQEAIENLFKITTAKKFREELEKLVVTDSEKKAFAYFTVYHPKLKELPFAILKSVENYTGISI" -0.319

Which soluble fraction (log2) value is on record for "HMLPDYLIELKKKADSGDAVSQNDIGNIYLYGLPRVNIYPDEKNIGIGIDYLYKAAWQDQVNAMTTI" ? -0.397

Quick one: soluble fraction (log2) of "HMENKVLVITEEEKGKRLDVYLAAALEVSRSYAQQLIQGEDVVVNDKQVKANYRLSEGDVVQVQLD" ? -0.218

GET /values?readout=soluble fraction (log2)&item= "HMEPDTVVVPNFVGKVYASEIEGNEAYSDFTFVIKEGNDPEQDIGVVLKQTPNEGLEVKKGKEITLTINQ" -0.169

What does the data say about its soluble fraction (log2)? Entry: "HMAEEFESMTEARRLELARLVDSRGFVRVTDAAEELGVSDVTIRGDLSELERRGLLTRVHGGAMPVT" -0.366

What value of soluble fraction (log2) has been recorded for this entry: "HMFMNFAEHLMALRKQRGWSQEELGSQIGVTRQTVSKWEMGQSTPELEKLVELSRLFGMSIDQLVGL" -0.00635

* * *

Quick list: soluble fraction (log2) per entry.
assay: soluble fraction after stress (log2 fold change); higher = more stays soluble; pooled small domains, quantitative proteomics; conditions: stress: pH 4
Give the value as a plain number.

Input sequence | Outcome measure | Assay result
HMEITTLTGVLGAGRLDSALAAALPQYSRARIQALISDAALRINGQVVADAGSKKMSGQTFELNIPAPVP | soluble fraction (log2) | 0.0449
HMGSGVNVTVNGKRMNLPLKDDHIIFVDIFNYIDFDLSKPKGSIVLKLNGRDAGYTDPIKDGDVIDIYWQ | soluble fraction (log2) | -0.686
HMKYYIYQGLGDSGELTKIAEVTDVKTYTATGLEANTKYRFAVSAYNGLRESSKSNIITVTT | soluble fraction (log2) | -0.325
HMVMPTGRVRYYDAEKGFGFLSKDSGGDDVYVRSSALPAGVTSLKRGQKVEFGIIDGKRGEQALSVHLL | soluble fraction (log2) | 0.0712
HMAEMRYLDQIYEVNVPLPDLSLEDGDLLARWAVNFHQRYEELFSYRQSDQEIRLVTLRVTVLGELP | soluble fraction (log2) | -1.67

Query (sequence): "HMGNLASRVAEQLLDKMRGDSLVPGTRLPSEIAMAKHFGVSRTVMREAIARLKADGLLETRRGSGAFVLAT" ; field requested: soluble fraction (log2) -0.0652

* * *

experiment: soluble fraction after stress (log2 fold change); higher = more stays soluble; pooled small domains, quantitative proteomics; conditions: stress: pH 4
The sequences listed here are annotated with their soluble fraction (log2).
Give the figure only, with no unit attached.

Fill in: soluble fraction (log2) of "HMEEIALTDILNRFLSSLSLEQRKIFMRRYWYLSPIKEIATEYGMSESKIKMSLFRSRNELKKLLEKEGI" is ___ -0.406

Report soluble fraction (log2) for "HMDPPQEVWDLTRSYLDSMNRPVHGHKSPQETYLRQVKSHRLPATALWDYFMAQRFHAVHATSESAA" please. -0.364

Value lookup for soluble fraction (log2); key = "HMTPQVALNDTETAIYEKMKQEKQMLLGELRAQFDISNKLWDTSLKTLTKNQLLAVSKEDDLLFVKL" -0.437

# input sequence: "HMPAMYKAERMNQILSILADQGDVDVGTLARQFGVSLVTIRKDLTYLESSGQLVRTHGGAIAVA" ; wanted: its soluble fraction (log2) -0.26

Field request: soluble fraction (log2) | item: "HMTKSTLQRQKIIADLIESGNISSQNQLKGLLKKNSLLITQATLSRDLSELGAIKKRQKDGLLVYVLPK" -0.0863

Endpoint output: soluble fraction (log2) of "HMDPTVSGQTGSVVREIRPGVPGEVELSVPLYGIRRWQAMADGILAEGTRVTVIQAEGVRLSVRPV" . Value? -0.251

What measured soluble fraction (log2) goes with "HMDTAGSVAIVSKSVIENGFGEIKYKGTYFKAQSDVYIPKDQMVKVIGKGDEQGSFLIVEKLN" ? -0.0172

Sample "HMSESAGKALDILFYLARVEDEVSLARLSKETGMNKATALRYLAVLESWGVVEKRPSGWSLGLSLFELGSK" — what was its soluble fraction (log2)? -1.03
